Molecular target: P2X7 (Homo sapiens (Human), UniProt Q99572)
Sequence (Q99572 whole entry): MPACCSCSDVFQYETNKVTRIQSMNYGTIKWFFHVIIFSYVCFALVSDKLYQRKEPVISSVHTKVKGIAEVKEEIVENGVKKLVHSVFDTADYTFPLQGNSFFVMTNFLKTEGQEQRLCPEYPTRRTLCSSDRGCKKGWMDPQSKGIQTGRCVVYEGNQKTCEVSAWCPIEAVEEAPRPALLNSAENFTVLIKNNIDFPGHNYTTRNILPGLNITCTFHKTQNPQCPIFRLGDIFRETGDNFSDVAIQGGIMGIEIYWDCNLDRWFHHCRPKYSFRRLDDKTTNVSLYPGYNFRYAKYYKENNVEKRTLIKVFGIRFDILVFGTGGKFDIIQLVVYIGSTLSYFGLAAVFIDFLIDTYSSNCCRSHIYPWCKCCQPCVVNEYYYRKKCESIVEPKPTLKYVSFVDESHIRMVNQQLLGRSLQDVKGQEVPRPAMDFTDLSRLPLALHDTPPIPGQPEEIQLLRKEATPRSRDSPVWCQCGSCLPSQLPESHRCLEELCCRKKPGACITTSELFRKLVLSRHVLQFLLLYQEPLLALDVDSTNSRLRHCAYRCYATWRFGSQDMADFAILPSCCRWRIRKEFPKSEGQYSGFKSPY
Experiment: P2X7 antagonism in human peripheral blood mononuclear cells (PBMCs), IL-1β release
Assay type: cell-based
Conditions: P2X7; Table 3 (additional runs); 10 μM compound; read-out: PBMC 10 μM (% control)
REPORTED_METRIC: remaining activity at 10 µM (%)

Task: Reported remaining activity at 10 µM for O=C1c2nnc(-c3cccnc3)n2CC(C2CC2)N1Cc1cccc(C(F)(F)F)c1Cl (racemic) : what is it?
Result: 6.9

Task: Same question, C[C@H]1Cn2c(nnc2-c2cocn2)C(=O)N1Cc1cccc(C(F)(F)F)c1Cl this time
Result: -3.4

Task: What about O=C1c2nnc(-c3cnccn3)n2CCN1Cc1cccc(F)c1F ?
Result: 23.7

Task: Next up: C[C@H]1Cn2c(nnc2-c2cnccn2)C(=O)N1
Result: 105

Task: // next record CC[C@H]1Cn2c(nnc2-c2cnccn2)C(=O)N1Cc1cccc(C(F)(F)F)c1Cl
Result: 1.2

1. C[C@H]1Cn2c(nnc2-c2ncc(Br)cn2)C(=O)N1Cc1cccc(C(F)(F)F)c1Cl
2. C[C@H]1Cn2c(-c3cocn3)nnc2-c2nnc(-c3cccc(C(F)(F)F)c3Cl)n21
3. C[C@H]1Cn2c(nnc2-c2ccncn2)C(=O)N1Cc1cccc(C(F)(F)F)c1Cl
Task: Exam item: list the entries in increasing order of remaining activity at 10 µM. Answer with the labels in sequence, matching the requested order.
Result: 3, 2, 1
